# tested system: CDK13 (Homo sapiens)
# Sequence (Q14004 whole entry): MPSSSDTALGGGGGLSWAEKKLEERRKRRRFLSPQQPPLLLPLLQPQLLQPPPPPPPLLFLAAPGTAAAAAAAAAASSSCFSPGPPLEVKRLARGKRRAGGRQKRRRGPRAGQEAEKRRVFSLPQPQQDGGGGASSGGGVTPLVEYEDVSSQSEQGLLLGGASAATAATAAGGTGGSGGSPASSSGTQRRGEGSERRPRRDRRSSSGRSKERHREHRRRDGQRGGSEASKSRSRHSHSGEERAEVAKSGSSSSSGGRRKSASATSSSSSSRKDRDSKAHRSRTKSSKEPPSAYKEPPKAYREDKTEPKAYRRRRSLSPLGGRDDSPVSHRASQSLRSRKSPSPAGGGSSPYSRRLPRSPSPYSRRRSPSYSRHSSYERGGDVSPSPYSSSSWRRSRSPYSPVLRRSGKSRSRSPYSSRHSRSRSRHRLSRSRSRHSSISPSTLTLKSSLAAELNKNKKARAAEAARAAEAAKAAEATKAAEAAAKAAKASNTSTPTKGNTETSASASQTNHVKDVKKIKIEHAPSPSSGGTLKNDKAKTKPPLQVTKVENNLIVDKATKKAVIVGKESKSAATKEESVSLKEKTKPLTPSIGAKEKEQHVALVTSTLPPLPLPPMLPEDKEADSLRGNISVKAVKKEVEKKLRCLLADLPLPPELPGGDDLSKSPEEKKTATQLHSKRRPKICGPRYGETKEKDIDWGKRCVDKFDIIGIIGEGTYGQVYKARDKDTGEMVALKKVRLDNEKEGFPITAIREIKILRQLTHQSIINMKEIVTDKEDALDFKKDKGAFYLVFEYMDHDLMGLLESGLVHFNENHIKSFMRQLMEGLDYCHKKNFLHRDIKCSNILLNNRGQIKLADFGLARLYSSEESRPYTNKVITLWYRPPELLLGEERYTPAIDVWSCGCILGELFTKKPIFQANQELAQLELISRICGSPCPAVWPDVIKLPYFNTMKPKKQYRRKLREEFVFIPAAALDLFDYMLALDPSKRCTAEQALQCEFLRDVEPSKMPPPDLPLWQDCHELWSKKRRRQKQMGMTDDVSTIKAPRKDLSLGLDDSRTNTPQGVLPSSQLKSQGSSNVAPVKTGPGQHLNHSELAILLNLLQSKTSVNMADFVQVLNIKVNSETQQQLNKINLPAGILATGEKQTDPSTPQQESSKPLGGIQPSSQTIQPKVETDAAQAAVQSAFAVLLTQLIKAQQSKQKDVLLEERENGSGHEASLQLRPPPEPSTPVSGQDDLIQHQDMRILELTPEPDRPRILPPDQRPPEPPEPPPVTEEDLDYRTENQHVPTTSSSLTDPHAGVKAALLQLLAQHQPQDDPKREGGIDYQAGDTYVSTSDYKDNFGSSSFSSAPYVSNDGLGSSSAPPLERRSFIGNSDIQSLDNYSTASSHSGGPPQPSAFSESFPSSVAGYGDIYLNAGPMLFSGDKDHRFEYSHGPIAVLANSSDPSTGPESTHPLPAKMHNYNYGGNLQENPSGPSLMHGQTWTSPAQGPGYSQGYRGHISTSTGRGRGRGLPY
# Sequence (O75909 whole entry partner): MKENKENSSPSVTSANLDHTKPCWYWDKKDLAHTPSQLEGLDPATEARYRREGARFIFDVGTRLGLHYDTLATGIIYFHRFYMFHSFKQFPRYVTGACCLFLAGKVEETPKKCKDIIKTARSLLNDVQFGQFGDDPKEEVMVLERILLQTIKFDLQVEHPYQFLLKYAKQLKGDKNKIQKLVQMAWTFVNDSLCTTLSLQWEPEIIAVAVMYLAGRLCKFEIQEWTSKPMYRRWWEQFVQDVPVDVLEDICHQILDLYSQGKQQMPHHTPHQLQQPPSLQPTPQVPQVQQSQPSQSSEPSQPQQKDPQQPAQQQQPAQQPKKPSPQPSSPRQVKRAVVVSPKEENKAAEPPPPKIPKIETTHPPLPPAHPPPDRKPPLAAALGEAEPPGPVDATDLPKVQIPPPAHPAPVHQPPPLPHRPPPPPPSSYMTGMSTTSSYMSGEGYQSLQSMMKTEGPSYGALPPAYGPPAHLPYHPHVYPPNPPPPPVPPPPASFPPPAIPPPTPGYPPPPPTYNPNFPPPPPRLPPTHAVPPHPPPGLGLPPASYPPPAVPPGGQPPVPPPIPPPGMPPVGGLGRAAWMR
# protocol text: Western blot degradation of CDK13 (Example 3)
# Type: cell-based
# Parameters: degradation of CDK12/13 protein in leukemia cells KASUMI-1, MV4-11, and Jurkat; endogenous in cells
# test parameters: DC50 classes; cell line not given; read-out: CDK13 degradation Activity
Reported values of DC50 for individual entries

- compound: "CC(=O)N(c1ccc(-c2cnn(C3CCN(c4ccc5c(c4)C(=O)N(C4CCC(=O)NC4=O)C5=O)C3)c2)cc1)[C@H]1CC[C@H](Nc2ncc3ccccc3n2)CC1 (stereo partly drawn)"
  DC50: "3 to 10 µM"
- compound: "CC(=O)N(c1ccc(-c2cnc(N3CCN(c4cc(C(C(=O)N5C[C@H](O)C[C@H]5C(=O)N[C@@H](C)c5ccc(-c6scnc6C)cc5)C(C)C)on4)CC3)nc2)cc1)[C@H]1CC[C@@H](Nc2ncc3ccccc3n2)CC1 (single isomer, unassigned)"
  DC50: "< 0.1 µM"
- compound: "CC(=O)N(c1ccc(-c2cnc(N3C[C@H]4C[C@@H]3CN4CC(=O)N[C@H](C(=O)N3C[C@H](O)C[C@H]3C(=O)N[C@@H](C)c3ccc(-c4scnc4C)cc3)C(C)(C)C)nc2)cc1)[C@H]1CC[C@H](Nc2ncc3ccccc3n2)CC1"
  DC50: "0.1 to 0.5 µM"

---

# tested system: CDK12 (Homo sapiens, UniProt Q9NYV4)
# Sequence (Q9NYV4 whole entry): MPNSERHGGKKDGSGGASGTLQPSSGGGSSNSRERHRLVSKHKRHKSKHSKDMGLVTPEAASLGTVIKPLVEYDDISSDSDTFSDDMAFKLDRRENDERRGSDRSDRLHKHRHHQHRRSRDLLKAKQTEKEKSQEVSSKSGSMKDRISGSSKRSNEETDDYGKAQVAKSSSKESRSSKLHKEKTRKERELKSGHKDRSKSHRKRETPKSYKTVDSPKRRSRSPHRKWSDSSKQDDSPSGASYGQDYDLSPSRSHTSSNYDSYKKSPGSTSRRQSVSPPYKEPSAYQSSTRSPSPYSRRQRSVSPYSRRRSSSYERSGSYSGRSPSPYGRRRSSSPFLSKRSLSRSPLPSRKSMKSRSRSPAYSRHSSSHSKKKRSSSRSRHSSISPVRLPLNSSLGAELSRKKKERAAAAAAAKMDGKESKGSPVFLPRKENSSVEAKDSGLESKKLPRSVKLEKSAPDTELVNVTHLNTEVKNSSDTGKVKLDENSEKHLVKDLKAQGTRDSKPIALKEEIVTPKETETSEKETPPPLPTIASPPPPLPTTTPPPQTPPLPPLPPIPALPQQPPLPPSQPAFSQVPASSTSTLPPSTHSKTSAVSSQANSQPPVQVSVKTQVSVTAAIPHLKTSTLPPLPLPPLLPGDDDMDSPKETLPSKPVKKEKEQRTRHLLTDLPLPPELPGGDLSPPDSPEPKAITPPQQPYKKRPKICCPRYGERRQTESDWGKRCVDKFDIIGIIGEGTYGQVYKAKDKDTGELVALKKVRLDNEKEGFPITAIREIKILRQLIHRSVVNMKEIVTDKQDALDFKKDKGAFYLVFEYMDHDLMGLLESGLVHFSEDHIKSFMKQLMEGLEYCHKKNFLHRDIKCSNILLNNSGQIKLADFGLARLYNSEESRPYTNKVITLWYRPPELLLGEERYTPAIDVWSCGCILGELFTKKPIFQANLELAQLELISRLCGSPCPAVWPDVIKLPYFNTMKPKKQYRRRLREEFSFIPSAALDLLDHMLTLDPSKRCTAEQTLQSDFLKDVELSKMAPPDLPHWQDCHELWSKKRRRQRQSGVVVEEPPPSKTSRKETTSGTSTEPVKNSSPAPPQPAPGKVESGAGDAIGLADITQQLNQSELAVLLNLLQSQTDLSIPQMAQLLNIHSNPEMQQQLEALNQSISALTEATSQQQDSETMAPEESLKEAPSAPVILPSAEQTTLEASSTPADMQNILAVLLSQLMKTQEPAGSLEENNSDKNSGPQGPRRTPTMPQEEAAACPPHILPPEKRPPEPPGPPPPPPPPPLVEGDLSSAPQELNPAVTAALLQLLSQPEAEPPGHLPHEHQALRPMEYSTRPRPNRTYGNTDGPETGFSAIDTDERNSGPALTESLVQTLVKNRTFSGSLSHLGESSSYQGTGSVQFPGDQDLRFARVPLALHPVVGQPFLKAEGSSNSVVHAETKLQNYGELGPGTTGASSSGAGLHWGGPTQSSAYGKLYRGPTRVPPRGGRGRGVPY
# Sequence (O75909 whole entry partner): as the sequence (O75909 whole entry partner) above
# protocol text: Western blot degradation of CDK12 (Example 2)
# Assay type: cell-based
# Set-up: degradation of CDK12/13 protein in leukemia cells KASUMI-1, MV4-11, and Jurkat; endogenous in cells
# test parameters: DC50 classes; cell line not given; read-out: CDK12 degradation Activity
# Protocol: Western blot was used to determine the degradation of CDK12/13 protein in leukemia cells KASUMI-1, MV4-11, and Jurkat. […] (2) Cell seeding: Cells were digested, and the cell suspension was transferred to a 1.5 mL Eppendorf tube. After centrifugation at 1,000 rpm for 5 min, the cells were resuspended in 2 mL of culture medium and counted. […] The exposure results were quantitatively analyzed using Image J software. […]

- molecule: "Cc1ncsc1-c1ccc([C@H](C)NC(=O)[C@@H]2C[C@@H](O)CN2C(=O)[C@@H](NC(=O)CN2CCN(c3ncc(-c4ccc(N(C(=O)NCc5ccccc5)[C@H]5CC[C@H](Nc6ccc(C#N)cn6)CC5)cc4)cn3)CC2)C(C)(C)C)cc1 [Formula 86]"
  DC50: "< 100 nM"
- molecule: "Cc1ncsc1-c1ccc([C@H](C)NC(=O)[C@@H]2C[C@@H](O)CN2C(=O)[C@@H](NC(=O)COc2ccc(-c3ccc(N(C(=O)NCc4ccccc4)[C@H]4CC[C@H](Nc5ccc(C#N)cn5)CC4)cc3)cn2)C(C)(C)C)cc1 [Formula 6]"
  DC50: "1000 to 3000 nM"
- molecule: "Cc1ncsc1-c1ccc([C@H](C)NC(=O)[C@@H]2C[C@@H](O)CN2C(=O)[C@@H](NC(=O)CN2CCN(c3ccc(-c4ccc(N(C(=O)NCc5ccccc5)[C@H]5CC[C@H](Nc6ccc(C#N)cn6)CC5)cc4)cn3)CC2)C(C)(C)C)cc1 (racemic) [Formula 73]"
  DC50: "< 100 nM"
- molecule: "Cc1ncsc1-c1ccc([C@H](C)NC(=O)[C@@H]2C[C@@H](O)CN2C(=O)[C@@H](NC(=O)CN2CCC(COc3ccc(-c4ccc(N(C(=O)NCc5ccccc5)[C@H]5CC[C@H](Nc6ccc(C#N)cn6)CC5)cc4)cn3)CC2)C(C)(C)C)cc1 [Formula 12]"
  DC50: "500 to 1000 nM"
- molecule: "Cc1ncsc1-c1ccc([C@H](C)NC(=O)[C@@H]2C[C@@H](O)CN2C(=O)[C@@H](NC(=O)CN2CCC(n3cc(-c4ccc(N(C(=O)NCc5ccccc5)[C@H]5CC[C@H](Nc6ccc(C#N)cn6)CC5)cc4)cn3)CC2)C(C)(C)C)cc1 [Formula 31]"
  DC50: "1000 to 3000 nM"
- molecule: "Cc1ncsc1-c1ccc([C@H](C)NC(=O)[C@@H]2C[C@@H](O)CN2C(=O)[C@@H](NC(=O)CN2CCN(c3ncc(-c4ccc(N(C(=O)NCc5ccccc5)[C@H]5CC[C@H](Nc6ccc(C#N)cn6)CC5)cc4)cn3)CC2)C(C)(C)C)cc1 [Formula 84]"
  DC50: "< 100 nM"
- molecule: "Cc1ncsc1-c1ccc([C@H](C)NC(=O)[C@@H]2C[C@@H](O)CN2C(=O)[C@@H](NC(=O)CN2CCC(Oc3ccc(-c4ccc(N(C(=O)NCc5ccccc5)[C@H]5CC[C@H](Nc6ccc(C#N)cn6)CC5)cc4)cn3)CC2)C(C)(C)C)cc1 [Formula 11]"
  DC50: "500 to 1000 nM"
- molecule: "Cc1ncsc1-c1ccc([C@H](C)NC(=O)[C@@H]2C[C@@H](O)CN2C(=O)[C@@H](NC(=O)CN2CC(Oc3ccc(-c4ccc(N(C(=O)NCc5ccccc5)[C@H]5CC[C@H](Nc6ccc(C#N)cn6)CC5)cc4)cn3)C2)C(C)(C)C)cc1 [Formula 14]"
  DC50: "3000 to 10000 nM"
- molecule: "Cc1ncsc1-c1ccc([C@H](C)NC(=O)[C@@H]2C[C@@H](O)CN2C(=O)[C@@H](NC(=O)N2CCC3(CC2)CCN(c2ccc(N(C(=O)NCc4ccccc4)[C@H]4CC[C@H](Nc5ccc(C#N)cn5)CC4)cn2)CC3)C(C)(C)C)cc1 [Formula 52]"
  DC50: "3000 to 10000 nM"
- molecule: "N#Cc1ccc(N[C@H]2CC[C@H](N(C(=O)NCc3ccccc3)c3ccc(N4CCN(CCNc5cccc6c5C(=O)N(C5CCC(=O)NC5=O)C6=O)CC4)cc3)CC2)nc1 (stereo partly shown) [Formula 42]"
  DC50: "1000 to 3000 nM"
- molecule: "Cc1ncsc1-c1ccc([C@H](C)NC(=O)[C@@H]2C[C@@H](O)CN2C(=O)[C@@H](NC(=O)CN2CCC(C#Cc3ccc(N(C(=O)NCc4ccccc4)[C@H]4CC[C@H](Nc5ccc(C#N)cn5)CC4)cc3)CC2)C(C)(C)C)cc1 [Formula 25]"
  DC50: "3000 to 10000 nM"
- molecule: "N#Cc1ccc(N[C@H]2CC[C@H](N(C(=O)NCc3ccccc3)c3ccc(-c4ccc(=O)n(CCOCCNc5cccc6c5C(=O)N(C5CCC(=O)NC5=O)C6=O)c4)cc3)CC2)nc1 (stereo partly shown) [Formula 46]"
  DC50: "1000 to 3000 nM"
- molecule: "Cc1ncsc1-c1ccc([C@H](C)NC(=O)[C@@H]2C[C@@H](O)CN2C(=O)[C@@H](NC(=O)CN2CCN(c3ncc(-c4ccc(N(C(=O)NCc5ccccc5)[C@H]5CC[C@H](Nc6ccc(C#N)cn6)CC5)cc4)cn3)CC2)C(C)(C)C)cc1 [Formula 85]"
  DC50: "< 100 nM"
- molecule: "N#Cc1ccc(N[C@H]2CC[C@H](N(C(=O)NCc3ccccc3)c3ccc(N4CCN(CCOCCNc5cccc6c5C(=O)N(C5CCC(=O)NC5=O)C6=O)CC4)cc3)CC2)nc1 (stereo partly shown) [Formula 38]"
  DC50: "500 to 1000 nM"
- molecule: "Cc1ncsc1-c1ccc([C@H](C)NC(=O)[C@@H]2C[C@@H](O)CN2C(=O)[C@@H](NC(=O)CC#CCOc2ccc(-c3ccc(N(C(=O)NCc4ccccc4)[C@H]4CC[C@H](Nc5ccc(C#N)cn5)CC4)cc3)cn2)C(C)(C)C)cc1 [Formula 16]"
  DC50: "3000 to 10000 nM"
- molecule: "Cc1ncsc1-c1ccc([C@H](C)NC(=O)[C@@H]2C[C@@H](O)CN2C(=O)[C@@H](NC(=O)COCCOCCN2CCN(c3ccc(N(C(=O)NCc4ccccc4)[C@H]4CC[C@H](Nc5ccc(C#N)cn5)CC4)cc3)CC2)C(C)(C)C)cc1 [Formula 8]"
  DC50: "500 to 1000 nM"
